# Test system: Saccharomyces cerevisiae;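 also: PSI is a weighted mean of sequencing reads over stability bins, variants kept only with over 10 reads, mCherry proximal and sfGFP distal, peptide attached via GGGS linker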
# Assay Text: protein stability index of tFT-peptide fusion (C-terminal peptide) (PSI (0-1 scale)); higher = more stable (slower turnover)
# Condition Parameters: genetic background: das1 deletion; temperature: 37 C
Property: protein stability index; scope: individual sequences

## Task GET /values?readout=protein stability index&item= "FGRAVWSRFCIV"
## Result 0.736

## Task Please answer likewise for "LFFSFLFLATRC"
## Result 0.392

## Task Please answer likewise for "LNLACCWFVRCR"
## Result 0.422

New cases:
## Task GET /values?readout=protein stability index&item= "PPPPPPLPSPSS"
## Result 0.754

## Task Please answer likewise for "GGSHVWKFYRNF"
## Result 0.767

## Task Please answer likewise for "LGVVVGGVRGVG"
## Result 0.505

## Task Please answer likewise for "ICQLLKFPLFWC"
## Result 0.721

## Task Please answer likewise for "SCLRVYFSVVVS"
## Result 0.389

## Task Please answer likewise for "CGWVRRARVKMM"
## Result 0.709
